Exercise: state measured growth for each of the compounds provided.
# Tested on: CAKI-1 renal
# experimentalDetails: NCI-60 one-dose screen, 48 h (100 = growth as untreated, 0 = no growth, -100 = all killed)
# conditionDescription: 10 µM unless noted
# Method: Growth inhibition of the CAKI-1 human tumor cell line is measured as a screen for anti-cancer activity. Cells are grown in 96 well plates and exposed to the test compound for 48 hours. Compounds are tested at a single concentration, which is 10^-5 M for most compounds. The reported endpoint is percent growth (GI% or GIPRCNT), where numbers from 0 - 100% represent growth inhibition, and numbers from -100% - 0 represent cell death. For example, a value of 40 represents 60% growth inhibition. […]
About 83,000 compounds went through this panel and 20% of them were active in at least one assay; those are over-represented in the sample as a whole.
Numbers only, in %.

Answered cases to consult:
Please give measured growth of the following entry: "COc1ccc(C(=O)Nc2ncc(Cc3ccc(Cl)cc3)s2)cc1"
18.4

Please give measured growth of the following entry: "CN(C)c1ccc(/C=N\NC(=O)c2ccc3nc(-c4ccc(Cl)cc4)[nH]c3c2)cc1"
84.9

Please give measured growth of the following entry: "NS(=O)(=O)c1ccc(C(=O)N=Nc2c(O)[nH]c3ccc(Cl)cc23)cc1"
92.6

Please give measured growth of the following entry: COc1ccc(C2[C@@H](Cl)C(=O)N2c2cc(OC)c(OC)c(OC)c2)cc1Cl (stereo not given in full)
26.5

Please examine the following record next.
Please give measured growth of the following entry: "Cn1c(=O)[nH]c(=O)c2nc3c(nc21)-c1ccccc1C3=O"
89.9

----------
# Test system: A498 renal
# experimentalDetails: NCI-60 one-dose screen, 48 h (100 = growth as untreated, 0 = no growth, -100 = all killed)
# conditionDescription: 10 µM unless noted
The panel holds about 83,000 compounds, 20% with a hit somewhere; the sample as a whole holds those more often.
Exercise: state measured growth for each of the molecules provided.
Give bare numbers, in %.

Answered cases to consult:
Please give measured growth of the following entry: "Cn1cc(-c2csc(-c3cn(CCCN4CCOCC4)c4ccc(F)cc34)n2)c2cccnc21"
36.1

Please give measured growth of the following entry: "c1cc(OCCCCCOc2cccc(-c3nc4ccccc4[nH]3)c2)cc(-c2nc3ccccc3[nH]2)c1"
9.68

Please give measured growth of the following entry: "Cn1cc(-c2csc(-c3cn(C)c4ccccc34)n2)c2cnccc21"
85.2

Please give measured growth of the following entry: "O=C1/C(=C/c2ccccn2)SC(=S)N1N1CCOCC1"
102

Please give measured growth of the following entry: "O=C1/C(=C/c2c[nH]c(=O)[nH]c2=O)SC(=S)N1Cc1ccccc1"
99.9

Please give measured growth of the following entry: Clc1cccc(C2Cc3cnccc3-c3[nH]c4ccncc4c32)c1 (stereo not given)
39

Working through the 4 molecules below one at a time, give growth for each.
1. COc1cc2c(cc1-c1c(C)noc1C)ncc1nc(CN3CCOCC3)n([C@H](C)COC(F)F)c12
2. Cc1ccc(OCCOCCOCCOc2ccc(C)n(O)c2=S)c(=S)n1O
3. CN(C)c1ccc(CNCCO)cc1
4. COc1ccc(/C=C/C(c2cc(OC)c(OC)c(OC)c2)n2cncn2)cc1O (stereo not given)

1: -7; 2: 52.5; 3: 111; 4: 19.8

----------
# Test system: MCF7 breast
# experimentalDetails: NCI-60 one-dose screen, 48 h (100 = growth as untreated, 0 = no growth, -100 = all killed)
# conditionDescription: 10 µM unless noted
The panel holds about 83,000 compounds, 20% with a hit somewhere; the sample as a whole holds those more often.
Exercise: state measured growth for each of the molecules provided.
One number for each entry, in %.

Answered cases to consult:
Please give measured growth of the following entry: "CN1CCN(c2ccc(NC3=CC(=O)c4ncncc4C3=O)cc2)CC1"
-64.3

Please give measured growth of the following entry: "O=C(c1cccc(N2CCOCC2)n1)c1c[nH]c2ccccc12"
66

Please give measured growth of the following entry: "CNCCCNc1nc2ccccc2c2c(=O)c3cc(Cl)ccc3sc12"
-77.3

Please give measured growth of the following entry: "O=Nc1ccc(NC(=O)Nc2ccc([N+](=O)[O-])cc2)cc1"
94

Please give measured growth of the following entry: "O=C(C[C@]1(O)C(=O)Nc2ccc(Br)cc21)c1ccco1"
94.2

Please examine the following record next.
Please give measured growth of the following entry: "O=C(N/N=C/c1ccc(Cl)cc1)c1ccc(NC(=O)c2ccccn2)cc1"
52.3

----------
Exercise: state measured growth for each of the molecules provided.
# System: ACHN renal
# experimentalDetails: NCI-60 one-dose screen, 48 h (100 = growth as untreated, 0 = no growth, -100 = all killed)
# conditionDescription: 10 µM unless noted
The panel holds about 83,000 compounds, 20% with a hit somewhere; the sample as a whole holds those more often.
One number for each entry, in %.

Answered cases to consult:
Please give measured growth of the following entry: "Cn1cc(-c2nonc2-c2c[nH]c3ccccc23)c2cc(Br)ccc21"
40.3

Please give measured growth of the following entry: COc1ccc(-c2cc(C(=O)N3N=C(c4ccc(N)cc4)CC3c3ccc(Cl)cc3)c3ccccc3n2)cc1 (stereo not given)
43.6

Please give measured growth of the following entry: "CCOc1ccc(/C=C/C(=O)c2cccc(OCCCOc3cccc(C(=O)/C=C/c4ccc(OCC)cc4)c3)c2)cc1"
79.4

Please give measured growth of the following entry: "COc1cc(/C=C/C(=O)c2cccc(-n3cc(-c4ccc(Cl)cc4)[nH]c3=O)c2)ccc1O"
60.4

Please examine the following record next.
Please give measured growth of the following entry: "Cc1cc(O)cc(-c2nn(C)cc2-c2cc(N3CCOCC3)nc(-c3cccnc3)n2)c1"
37.9

----------
# Test system: UACC-257 melanoma
# experimentalDetails: NCI-60 one-dose screen, 48 h (100 = growth as untreated, 0 = no growth, -100 = all killed)
# conditionDescription: 10 µM unless noted
# Procedure: Cells are grown in 96 well plates and exposed to the test compound for 48 hours. Compounds are tested at a single concentration, which is 10^-5 M for most compounds. The reported endpoint is percent growth (GI% or GIPRCNT), where numbers from 0 - 100% represent growth inhibition, and numbers from -100% - 0 represent cell death. For example, a value of 40 represents 60% growth inhibition. A value of 0 means no net growth occurred over the course of the experiment. […]
The panel holds about 83,000 compounds, 20% with a hit somewhere; the sample as a whole holds those more often.
// label = class 1 if growth is not less than 90%, otherwise class 0

Please indicate if the recorded growth for "Nc1cc(-c2ccc(Cl)cc2)nn1-c1nnc(/C=C/c2ccco2)c(=O)[nH]1" meets or exceeds 90%.
class 0

Please indicate if the recorded growth for "CC1=Nc2cnc(Nc3ccc(N4CCCCC4)cc3)nc2Nc2ccccc21" meets or exceeds 90%.
class 1

Please indicate if the recorded growth for "C=C[C@@]1(C)CC(=O)[C@@H](C(C)(C)c2cn(C)c3ccc(Br)cc23)C[C@@H]1O[Si](C)(C)C(C)(C)C" meets or exceeds 90%.
class 1

New cases:
Please indicate if the recorded growth for CN1CC(c2ccc(Br)cc2)C(C(=O)c2ccc(Br)cc2)C12C(=O)Nc1ccccc12 (centres undefined) meets or exceeds 90%.
class 0

Please indicate if the recorded growth for "C(=C(\C1=NCCN1)n1ccc2ccccc21)/c1ccccc1" meets or exceeds 90%.
class 1

Please indicate if the recorded growth for "CC1=C2CC/C(C)=C/CC[C@]3(C)O[C@H]3CC/C(C)=C/[C@H]2OC1" meets or exceeds 90%.
class 1

Please indicate if the recorded growth for "CCOC(=O)C/C(=N\Nc1cc(=O)[nH]c2ccc(C)cc12)C(=O)OCC" meets or exceeds 90%.
class 1

----------
# Test system: MOLT-4 leukemia
# experimentalDetails: NCI-60 one-dose screen, 48 h
# conditionDescription: 10 µM unless noted
Compounds without any hit were thinned out: in the full panel of roughly 83,000, 20% have a hit. Activity calls are given as the source filed them. The calls were made as follows: active = growth percent below 10; inactive = the rest.
# valid calls are T (active), F (inactive); nothing else

Worked cases, answers included:
What did the test return for "Clc1ccc(Nc2ncc(Cc3cccc(Cl)c3Cl)s2)cc1" ?
F

What did the test return for O=C(c1ccc(Br)cc1)C(Br)C(c1ccc(Cl)cc1)C(c1ccccc1)[N+](=O)[O-] (centres undefined) ?
F

What did the test return for "Cc1cccc(-c2nc(C(C)C)sc2-c2ccnc(NCCCNS(=O)(=O)c3ccc(Cl)cc3)c2)c1" ?
F

New cases:
What did the test return for "Cc1cn(C)cn1" ?
F

What did the test return for CC(O)CNC(Cc1ccccc1)c1ccc2c(c1)OCO2 (centres undefined) ?
F

What did the test return for "COc1ccc(/C=C(\C(=O)NCc2cccnc2)S(=O)(=O)c2ccccc2)cc1OC" ?
F

What did the test return for "N#Cc1c(-c2ccccc2)nc2c(c(-c3ccc(Cl)cc3)nn2-c2ccccc2)c1-c1ccc([N+](=O)[O-])cc1" ?
F

What did the test return for CCOC(=O)c1cnn(CC(C)O)c1NC(=O)NCc1cccc(F)c1 (centres undefined) ?
F

What did the test return for "O=C(O)c1cn(C2CC2)c2cc(N3CCN(C(=O)N/N=C/c4cccc5ccccc45)CC3)c(F)cc2c1=O" ?
F

What did the test return for "O=C(NCCCCCCNC(=O)OCc1ccc2c(Cl)cc(Cl)c(O)c2n1)OCc1ccc2c(Cl)cc(Cl)c(O)c2n1" ?
T

What did the test return for "O=C1/C(=C/c2ccc(Cl)cc2)CN(C(=O)C(Cl)Cl)C/C1=C\c1ccc(Cl)cc1" ?
T

What did the test return for "COc1cc(C=Nc2oc(-c3ccccc3)c(-c3ccccc3)c2C#N)cc(CN2CCCC2)c1O" ?
F

What did the test return for "O=C1Nc2ccccc2/C1=N/N1C(=O)CN(CCCl)C1=O" ?
F

What did the test return for "CSc1nc(-c2ccco2)c(C#N)c(=O)n1C" ?
F
